The measured values listed here are drawn from ChEMBL document CHEMBL4321819.

What IC50 was measured for each of the following?
- System: RS4-11
- experimental_protocol: Antiproliferative activity against human RS4:11 cells expressing wild type p53 assessed as MDM2-independent cell growth inhibition after 4 days by WST-8 assay
- Assay type: functional, cell-based
- settings: RS4-11, 96 h

Name the recorded IC50 for O=C1CCC(N2Cc3c(CCCCCNC(=O)c4ccc(NC(=O)[C@@H]5NC6(CCCCC6)[C@@]6(C(=O)Nc7cc(Cl)ccc76)[C@H]5c5cccc(Cl)c5F)cc4)cccc3C2=O)C(=O)N1 (stereo partly drawn) .
7.9 nM

Then O=C1CCC(N2Cc3c(CCCCCNC(=O)[C@@H]4NC5(CCCCC5)[C@@]5(C(=O)Nc6ccccc65)[C@H]4c4ccccc4)cccc3C2=O)C(=O)N1 (stereo partly drawn) ?
48.6 nM

Now try O=C1CCC(N2Cc3c(CCCCCNC(=O)[C@@H]4NC5(CCCCC5)[C@@]5(C(=O)Nc6cc(Cl)ccc65)[C@H]4c4ccccc4)cccc3C2=O)C(=O)N1 (stereo partly drawn) .
22.5 nM

###

- experimental_system: E3 ubiquitin-protein ligase Mdm2 (Homo sapiens)
- Sequence (Q00987 whole entry, the tested form may be a part): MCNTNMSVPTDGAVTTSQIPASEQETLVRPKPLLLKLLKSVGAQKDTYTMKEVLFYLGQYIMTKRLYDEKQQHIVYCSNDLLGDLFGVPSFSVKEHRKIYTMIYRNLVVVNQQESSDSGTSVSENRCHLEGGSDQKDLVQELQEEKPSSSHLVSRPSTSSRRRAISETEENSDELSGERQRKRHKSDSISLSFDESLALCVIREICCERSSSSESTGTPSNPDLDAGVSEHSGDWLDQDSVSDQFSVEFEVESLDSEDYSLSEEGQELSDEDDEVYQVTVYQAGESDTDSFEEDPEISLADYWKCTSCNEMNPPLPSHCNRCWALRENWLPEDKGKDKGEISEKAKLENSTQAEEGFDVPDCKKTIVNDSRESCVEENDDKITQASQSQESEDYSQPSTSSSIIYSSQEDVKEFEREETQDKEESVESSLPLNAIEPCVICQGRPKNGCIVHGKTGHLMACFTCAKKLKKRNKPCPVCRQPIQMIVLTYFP
- experimental_protocol: Displacement of PMDM6-F fluorescent probe from human recombinant His-tagged MDM2 (1 to 118 residues) after 15 mins by fluorescence polarization assay
outcome_measure: IC50 (nM)
State just the number; it will be interpreted in nM.

Would you kindly share the measured IC50 for `CNC(=O)[C@@H]1NC2(CCCCC2)[C@@]2(C(=O)Nc3cc(Cl)ccc32)[C@H]1c1cccc(Cl)c1F` ?
48.1

Would you mind doing O=C1CCC(N2Cc3c(CCCCCNC(=O)[C@@H]4NC5(CCCCC5)[C@@]5(C(=O)Nc6cc(Cl)ccc65)[C@H]4c4cccc(Cl)c4F)cccc3C2=O)C(=O)N1 (stereo partly specified) as well?
67.5

Moving on to `O=C(O)c1ccc(NC(=O)[C@@H]2NC3(CCCCC3)[C@@]3(C(=O)Nc4cc(Cl)ccc43)[C@H]2c2cccc(Cl)c2F)cc1`
9.5

###

- Test system: MDA-MB-231
- experimental_protocol: Antiproliferative activity against human MDA-MB-231 cells assessed as cell growth inhibition after 4 days in presence of control siRNA for 3 days followed by compound treatment by WST-8 assay
- Type: functional, cell-based
Please provide measured IC50 for the entries that follow.

I am curious: what IC50 value has been reported for O=C1CCC(N2Cc3c(CCCCCNC(=O)c4ccc(NC(=O)[C@@H]5NC6(CCCCC6)[C@@]6(C(=O)Nc7cc(Cl)ccc76)[C@H]5c5cccc(Cl)c5F)cc4)cccc3C2=O)C(=O)N1 (some centres undefined) ?
> 3000 nM

And the next one, O=C1CCC(N2Cc3c(CCCCCNC(=O)[C@@H]4NC5(CCCCC5)[C@@]5(C(=O)Nc6cc(Cl)ccc65)[C@H]4c4cccc(Cl)c4F)cccc3C2=O)C(=O)N1 (some centres undefined) ?
30 nM

What would you report for `O=C(O)c1ccc(NC(=O)[C@@H]2NC3(CCCCC3)[C@@]3(C(=O)Nc4cc(Cl)ccc43)[C@H]2c2cccc(Cl)c2F)cc1` ?
> 3000 nM

Continue with `CNC(=O)[C@@H]1NC2(CCCCC2)[C@@]2(C(=O)Nc3cc(Cl)ccc32)[C@H]1c1cccc(Cl)c1F`
> 3000 nM

###

- Test system: MDA-MB-231
- experimental_protocol: Antiproliferative activity against human MDA-MB-231 cells harboring mutant p53 assessed as cell growth inhibition after 4 days by WST-8 assay
- Assay type: functional, cell-based
- settings: MDA-MB-231, 96 h
outcome_measure: pIC50
Lab note: report pIC50 as minus log10 of the concentration in molar units, number only.

Any idea what pIC50 was measured for O=C1CCC(N2Cc3c(CCCCCNC(=O)[C@@H]4NC5(CCCCC5)[C@@]5(C(=O)Nc6cc(Cl)ccc65)[C@H]4c4cccc(Cl)c4F)cccc3C2=O)C(=O)N1 (stereo partly specified) ?
7.40

###

- experimental_system: Protein cereblon/Eukaryotic peptide chain release factor GTP-binding subunit ERF3A/DNA damage-binding protein 1/Cullin-4A (Homo sapiens) (UniProt Q96SW2+Q16531+Q13619+P15170)
- Sequence (P15170 whole entry, looked up): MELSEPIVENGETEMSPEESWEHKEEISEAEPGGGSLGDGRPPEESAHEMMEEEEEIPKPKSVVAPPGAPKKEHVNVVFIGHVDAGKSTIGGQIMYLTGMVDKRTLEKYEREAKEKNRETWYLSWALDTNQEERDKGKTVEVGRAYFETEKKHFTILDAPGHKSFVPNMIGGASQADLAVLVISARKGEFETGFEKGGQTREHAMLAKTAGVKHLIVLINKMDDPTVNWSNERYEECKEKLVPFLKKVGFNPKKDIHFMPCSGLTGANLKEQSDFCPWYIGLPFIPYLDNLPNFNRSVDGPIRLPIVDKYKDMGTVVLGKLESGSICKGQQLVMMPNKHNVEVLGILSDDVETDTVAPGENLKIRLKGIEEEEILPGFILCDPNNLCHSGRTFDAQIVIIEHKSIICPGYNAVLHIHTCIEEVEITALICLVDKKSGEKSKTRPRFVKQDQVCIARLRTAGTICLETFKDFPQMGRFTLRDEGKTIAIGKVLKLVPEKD
- Sequence (Q13619 whole entry, looked up): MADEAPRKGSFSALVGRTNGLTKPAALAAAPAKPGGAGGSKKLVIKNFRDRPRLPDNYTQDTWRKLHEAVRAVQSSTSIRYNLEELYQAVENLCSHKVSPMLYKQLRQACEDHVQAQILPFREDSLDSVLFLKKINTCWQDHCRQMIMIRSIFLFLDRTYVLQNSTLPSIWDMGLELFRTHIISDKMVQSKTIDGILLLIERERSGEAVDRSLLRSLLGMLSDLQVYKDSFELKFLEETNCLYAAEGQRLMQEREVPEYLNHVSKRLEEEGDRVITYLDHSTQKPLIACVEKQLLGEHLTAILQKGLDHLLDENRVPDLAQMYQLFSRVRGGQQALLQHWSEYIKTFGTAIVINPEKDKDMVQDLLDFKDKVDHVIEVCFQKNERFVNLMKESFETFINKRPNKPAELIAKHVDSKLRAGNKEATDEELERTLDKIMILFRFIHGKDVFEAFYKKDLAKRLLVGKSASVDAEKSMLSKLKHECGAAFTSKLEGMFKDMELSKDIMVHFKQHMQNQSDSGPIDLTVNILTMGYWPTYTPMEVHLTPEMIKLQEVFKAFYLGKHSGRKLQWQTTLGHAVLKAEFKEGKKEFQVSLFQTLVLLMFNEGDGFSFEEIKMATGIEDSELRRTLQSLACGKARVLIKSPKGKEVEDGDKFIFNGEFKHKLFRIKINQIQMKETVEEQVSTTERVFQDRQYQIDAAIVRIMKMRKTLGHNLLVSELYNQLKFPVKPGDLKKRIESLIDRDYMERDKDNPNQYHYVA
- Sequence (Q16531 whole entry, looked up): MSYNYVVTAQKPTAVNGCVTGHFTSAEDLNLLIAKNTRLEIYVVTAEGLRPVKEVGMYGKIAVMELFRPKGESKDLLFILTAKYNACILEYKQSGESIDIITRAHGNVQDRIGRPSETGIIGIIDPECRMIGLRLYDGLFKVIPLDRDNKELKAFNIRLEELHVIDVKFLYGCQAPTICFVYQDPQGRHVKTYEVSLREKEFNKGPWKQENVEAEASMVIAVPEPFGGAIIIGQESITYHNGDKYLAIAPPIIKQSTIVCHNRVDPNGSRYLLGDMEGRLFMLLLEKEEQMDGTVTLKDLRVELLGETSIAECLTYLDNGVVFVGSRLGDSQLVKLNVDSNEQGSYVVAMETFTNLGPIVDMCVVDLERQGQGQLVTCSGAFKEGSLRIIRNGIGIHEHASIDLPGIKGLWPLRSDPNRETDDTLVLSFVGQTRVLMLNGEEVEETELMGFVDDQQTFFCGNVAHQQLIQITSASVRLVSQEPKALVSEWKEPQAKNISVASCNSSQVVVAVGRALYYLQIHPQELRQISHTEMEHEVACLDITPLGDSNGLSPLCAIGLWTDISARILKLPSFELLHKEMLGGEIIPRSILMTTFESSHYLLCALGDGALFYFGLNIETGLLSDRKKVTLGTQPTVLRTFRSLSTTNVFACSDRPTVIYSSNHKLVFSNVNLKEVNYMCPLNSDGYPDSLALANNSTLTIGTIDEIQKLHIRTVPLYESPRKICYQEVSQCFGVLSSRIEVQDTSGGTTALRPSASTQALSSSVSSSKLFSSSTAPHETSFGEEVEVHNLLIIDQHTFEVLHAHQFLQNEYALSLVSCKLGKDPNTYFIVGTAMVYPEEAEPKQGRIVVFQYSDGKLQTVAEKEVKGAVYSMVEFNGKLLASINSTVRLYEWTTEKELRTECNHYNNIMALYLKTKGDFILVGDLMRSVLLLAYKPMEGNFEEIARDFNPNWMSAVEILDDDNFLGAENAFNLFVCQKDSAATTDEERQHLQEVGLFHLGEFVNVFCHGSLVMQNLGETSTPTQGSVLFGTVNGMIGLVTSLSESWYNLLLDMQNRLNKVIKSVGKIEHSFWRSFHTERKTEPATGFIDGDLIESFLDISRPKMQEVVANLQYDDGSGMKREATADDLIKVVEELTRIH
- Sequence (Q96SW2 whole entry, looked up): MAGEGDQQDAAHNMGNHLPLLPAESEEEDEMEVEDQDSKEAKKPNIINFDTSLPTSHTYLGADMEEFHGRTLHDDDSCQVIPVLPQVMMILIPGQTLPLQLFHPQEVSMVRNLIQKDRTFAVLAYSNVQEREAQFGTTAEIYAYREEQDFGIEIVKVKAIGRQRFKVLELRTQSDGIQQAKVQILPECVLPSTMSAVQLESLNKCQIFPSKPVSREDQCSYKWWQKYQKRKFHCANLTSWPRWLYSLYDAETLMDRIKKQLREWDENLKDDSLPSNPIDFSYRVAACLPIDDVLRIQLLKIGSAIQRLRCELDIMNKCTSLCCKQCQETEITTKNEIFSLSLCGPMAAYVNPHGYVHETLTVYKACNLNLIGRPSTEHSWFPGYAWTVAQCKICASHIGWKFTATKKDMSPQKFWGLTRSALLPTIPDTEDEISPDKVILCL
- experimental_protocol: Protac activity at GSPT1/CUL4/DDB1/CRBN in human RS4:11 cells expressing wild type p53 assessed as decrease in GSPT1 protein level after 2 hrs by Western blot analysis
- Format: cell-based
Activity calls are given as the source filed them. The rule behind the calls is not given here.
Thanks in advance; please answer with one of these: active, inactive

How was `CNC(=O)[C@@H]1NC2(CCCCC2)[C@@]2(C(=O)Nc3cc(Cl)ccc32)[C@H]1c1cccc(Cl)c1F` classified in this test?
inactive

Now the compound O=C1CCC(N2Cc3c(CCCOCCOCCNC(=O)[C@@H]4NC5(CCCCC5)[C@@]5(C(=O)Nc6cc(Cl)ccc65)[C@H]4c4cccc(Cl)c4F)cccc3C2=O)C(=O)N1 (stereo partly specified)
active

Query O=C1CCC(N2Cc3c(CCCOCCNC(=O)[C@@H]4NC5(CCCCC5)[C@@]5(C(=O)Nc6cc(Cl)ccc65)[C@H]4c4cccc(Cl)c4F)cccc3C2=O)C(=O)N1 (stereo partly specified) next
active

Continue with O=C1CCC(N2Cc3c(CCCCCNC(=O)[C@@H]4NC5(CCCCC5)[C@@]5(C(=O)Nc6cc(Cl)ccc65)[C@H]4c4cccc(Cl)c4F)cccc3C2=O)C(=O)N1 (stereo partly specified)
active

What do we get for O=C1CCC(N2Cc3c(CCCCNC(=O)[C@@H]4NC5(CCCCC5)[C@@]5(C(=O)Nc6cc(Cl)ccc65)[C@H]4c4cccc(Cl)c4F)cccc3C2=O)C(=O)N1 (stereo partly specified) ?
active

Entry to check: O=C1CCC(N2Cc3c(CCCOCCOCCOCCNC(=O)[C@@H]4NC5(CCCCC5)[C@@]5(C(=O)Nc6cc(Cl)ccc65)[C@H]4c4cccc(Cl)c4F)cccc3C2=O)C(=O)N1 (stereo partly specified)
active

###

- System: MOLM-13
- experimental_protocol: Antiproliferative activity against human MOLM13 cells expressing wild type p53 assessed as cell growth inhibition after 4 days by WST-8 assay
- Assay type: functional, cell-based
- settings: MOLM-13, 96 h
outcome_measure: pIC50
pIC50 here: minus log base 10 of the concentration, concentration in moles per litre.

Quick one: pIC50 for `CNC(=O)[C@@H]1NC2(CCCCC2)[C@@]2(C(=O)Nc3cc(Cl)ccc32)[C@H]1c1cccc(Cl)c1F` ?
5.91

Next record, please: O=C1CCC(N2Cc3c(CCCCCNC(=O)[C@@H]4NC5(CCCCC5)[C@@]5(C(=O)Nc6cc(Cl)ccc65)[C@H]4c4cccc(Cl)c4F)cccc3C2=O)C(=O)N1 (some centres not stated)
7.61

###

- experimental_system: Eukaryotic peptide chain release factor GTP-binding subunit ERF3A (Homo sapiens)
- Sequence (P15170 whole entry): as the sequence (P15170 whole entry, looked up) above
- experimental_protocol: Induction of GSPT1 degradation in human RS4:11 cells measured after 24 hrs by Western blot analysis
- Assay type: cell-based
Could you please report measured log10(DC50) for the items listed next?
Please note: log10 values; quantity DC50; unit nM.

GET /values?readout=log10(DC50)&system=Eukaryotic peptide chain release factor GTP-binding subunit ERF3A (Homo sapiens)&item= O=C1CCC(N2Cc3c(CCCOCCNC(=O)[C@@H]4NC5(CCCCC5)[C@@]5(C(=O)Nc6cc(Cl)ccc65)[C@H]4c4cccc(Cl)c4F)cccc3C2=O)C(=O)N1 (stereo partly specified)
0.26

Same again, this time with O=C1CCC(N2Cc3c(CCCCCNC(=O)[C@@H]4NC5(CCCCC5)[C@@]5(C(=O)Nc6cc(Cl)ccc65)[C@H]4c4cccc(Cl)c4F)cccc3C2=O)C(=O)N1 (stereo partly specified)
0.11

And the next one, O=C1CCC(N2Cc3c(NC(=O)[C@@H]4NC5(CCCCC5)[C@@]5(C(=O)Nc6cc(Cl)ccc65)[C@H]4c4cccc(Cl)c4F)cccc3C2=O)C(=O)N1 (stereo partly specified) ?
3.36

Quick one: O=C1CCC(N2Cc3c(CCCCNC(=O)[C@@H]4NC5(CCCCC5)[C@@]5(C(=O)Nc6cc(Cl)ccc65)[C@H]4c4cccc(Cl)c4F)cccc3C2=O)C(=O)N1 (stereo partly specified)
0.04

Next up: O=C1CCC(N2Cc3c(CCCOCCOCCNC(=O)[C@@H]4NC5(CCCCC5)[C@@]5(C(=O)Nc6cc(Cl)ccc65)[C@H]4c4cccc(Cl)c4F)cccc3C2=O)C(=O)N1 (stereo partly specified)
0.08

What would you report for O=C1CCC(N2Cc3c(CCCNC(=O)[C@@H]4NC5(CCCCC5)[C@@]5(C(=O)Nc6cc(Cl)ccc65)[C@H]4c4cccc(Cl)c4F)cccc3C2=O)C(=O)N1 (stereo partly specified) ?
2.08

###

- Tested on: RS4-11
- experimental_protocol: Antiproliferative activity against human RS4:11 cells expressing wild type p53 assessed as MDM2-independent cell growth inhibition after 4 days by WST-8 assay
- Format: functional, cell-based
- settings: RS4-11, 96 h
Provide the reported IC50 of each item.
Number in nM, nothing else.

Given the entry O=C1CCC(N2Cc3c(CCCCCNC(=O)[C@@H]4NC5(CCCCC5)[C@@]5(C(=O)Nc6cc(Cl)ccc65)[C@H]4c4cccc(Cl)c4F)cccc3C2=O)C(=O)N1 (stereo partly drawn) , report its measured IC50.
2.3

Consider next the compound O=C1CCC(N2Cc3c(CCCCCNC(=O)[C@@H]4NC5(CCCCC5)[C@@]5(C(=O)Nc6ccccc65)[C@H]4c4ccccc4F)cccc3C2=O)C(=O)N1 (stereo partly drawn) in the same way.
4.1

Try the compound `CNC(=O)[C@@H]1NC2(CCCCC2)[C@@]2(C(=O)Nc3cc(Cl)ccc32)[C@H]1c1cccc(Cl)c1F`
1490
